# experimental protocol: yeast display, Sf9 membrane polyspecificity reagent, FACS + sequencing; frameworks hold sequencing errors
measurement kind: polyreactivity (PSR sort gate)

Below: 4 sequences and their reported polyreactivity (PSR sort gate).
QVQLVESGGGLVQAGGSLRLSCAATGINITSNTMGWYRLAPGKEREFVASINWNGSSTYADSVKGRFTISRDNAKNTVYLQMNSLKPEDTAVYYCNADYNRNSVQFSLYDYWGQGTQVTVSS; low polyreactivity
QVQLVASGGGLVQSGGSLRLSCAASGTTFGYYAMGWYIQAPGKERELVAAITKSGGSTFYAESVKGRFTISRDNAKNTVYLQMNSLKPEDTAVYYCAARYKGQYYRQGRHDYWGQGTQVTVSS; high polyreactivity
QVQLVESGGGLVQAGGSLRLSCAASGSTFGLKAMGWYRQAPGKERELVAAITSGGTYYADSVKGRFTISRDNAKNTVYLQMNSLKPEDTAVYYCAADGTWSIYGGLYYWGQGTQVTVSS; low polyreactivity
QVQLVESGGGLVQAGGSLRLSCAASGIIFQFYAMVWYRQAPGKERELVAAISRSGGITHYADSVKGRFTISRDNAKNTVYLQMNILKPEDTAVYYCATRGTRSYFRTFYYWGQGTQVTVSS; high polyreactivity

The reported polyreactivity (PSR sort gate) of the sequence "QVQLVESGGGLVQAGGSLRLSCDASARTFWRNAMGWYRQAPGKERELVAAISYSGGSTYYADSVKGRFTISRDYAKNTVYLQMNSLKPEDTAVYYCAVVYSTSSLYSGYYWGQGTQVTVSS" was low polyreactivity
